Assay: Solubility experiments in different media (thermodynamic solubility)
Format: physicochemical
Details: USP buffer pH 3.0, 37 °C, pH 3, aqueous buffer, thermodynamic from solid, pH 3.0, read-out: Solubility of free base crystal form II

compound | solubility at 2 h [µg/mL]
CC(C)(O)c1nc(N2C[C@H]3CN(C(=O)c4c(F)cccc4-c4ncccn4)C[C@H]3C2)ncc1F [free base crystal form II] | 55

---

# Select fold per record follows
Target: human OX2R (Homo sapiens, UniProt O43614)
Construct: expressed in transfected cells; host or cells: CHO-K1
Sequence (O43614 whole entry): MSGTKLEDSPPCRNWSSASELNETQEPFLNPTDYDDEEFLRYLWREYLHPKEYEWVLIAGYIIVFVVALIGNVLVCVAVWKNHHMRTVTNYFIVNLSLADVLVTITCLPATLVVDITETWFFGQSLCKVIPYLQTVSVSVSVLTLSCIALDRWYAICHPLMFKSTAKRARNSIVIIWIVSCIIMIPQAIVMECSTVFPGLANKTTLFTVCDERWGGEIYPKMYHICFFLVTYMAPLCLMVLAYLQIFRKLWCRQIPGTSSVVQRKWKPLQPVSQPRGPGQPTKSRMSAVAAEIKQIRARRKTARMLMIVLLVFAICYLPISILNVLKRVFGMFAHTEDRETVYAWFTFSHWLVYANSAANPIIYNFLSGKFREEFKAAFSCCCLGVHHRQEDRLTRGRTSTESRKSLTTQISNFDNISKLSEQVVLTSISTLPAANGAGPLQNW
Assay: Calcium current (FLIPR) in cells stably expressing OX2 receptor
Format: cell-based
Conditions: OX1R IC50 over OX2R IC50
observation-type: Select fold

molecule | value-reported
CC(C)(O)c1nc(N2C[C@H]3CN(C(=O)c4c(F)cccc4-c4ncccn4)C[C@H]3C2)ncc1F [Compound 9] | 122
Cc1nc(N2C[C@H]3CN(C(=O)c4cccc(F)c4-n4nccn4)C[C@H]3C2)nc(C(C)(C)O)c1F [Compound 11] | 49
Cc1nc(N2C[C@H]3CN(C(=O)c4ccc(F)cc4-n4nccn4)C[C@H]3C2)nc(C(C)(C)O)c1F [Compound 10] | 48
Cc1nc(N2C[C@H]3CN(C(=O)c4c(F)cccc4-c4ccccn4)C[C@H]3C2)nc(C(C)(C)O)c1F [Compound 12] | 36

---

Experiment: PK studies in animals of the free base crystal forms
Assay type: in vivo
Conditions: Sprague-Dawley (SD), rat, plasma, po, 30 mg/kg, PO, 30MPK, 0.5%CMC-Na suspension, SD rats, read-out: MRT 0-∞

molecule | unit-spec | MRT inf
CC(C)(O)c1nc(N2C[C@H]3CN(C(=O)c4c(F)cccc4-c4ncccn4)C[C@H]3C2)ncc1F [free base crystal form I] | h | 3.8

---

Test: PK studies in animals of the free base crystal forms
Type: in vivo
Conditions: Sprague-Dawley (SD), rat, 2 mg/kg; IV, 2MPK, 20%HP-B-CD solution, SD rats, plasma

compound | clearance
CC(C)(O)c1nc(N2C[C@H]3CN(C(=O)c4c(F)cccc4-c4ncccn4)C[C@H]3C2)ncc1F [free base crystal form I] | 15 mL/min/kg

---

Test: PK studies in animals of the free base crystal forms
Assay type: in vivo
Conditions: Sprague-Dawley (SD), rat, plasma, po, 30 mg/kg, 30MPK, 0.5%HPMC suspension, SD rats
observation-type: AUC(0-inf) (ng·h/mL)

molecule | value-reported
CC(C)(O)c1nc(N2C[C@H]3CN(C(=O)c4c(F)cccc4-c4ncccn4)C[C@H]3C2)ncc1F [free base crystal form II] | 13600

---

Assay: PK studies in animals of the free base crystal forms
Assay type: in vivo
Conditions: Sprague-Dawley (SD), rat, plasma, po, 30 mg/kg, 30MPK, 0.5%CMC-Na suspension, SD rats

compound | unit-spec | AUC(0-inf)
CC(C)(O)c1nc(N2C[C@H]3CN(C(=O)c4c(F)cccc4-c4ncccn4)C[C@H]3C2)ncc1F [free base crystal form I] | ng·h/mL | 31000

---

Assay: Solubility experiments in different media (thermodynamic solubility)
Type: physicochemical
Conditions: USP buffer, 37 °C, pH 8, aqueous buffer, thermodynamic from solid, pH 8.0, read-out: Solubility of free base crystal form I

compound | solubility at 2 h
CC(C)(O)c1nc(N2C[C@H]3CN(C(=O)c4c(F)cccc4-c4ncccn4)C[C@H]3C2)ncc1F [free base crystal form I] | 58 µg/mL
